# Tested on: Fibroblast
# experiment_notes: Multiplex assay against human fibroblast
# Format: toxicity, cell-based
# test_conditions: 24 h, 10 µM, compound concentration 10 uM, replicate 1
Each entry below carries its reported Population Fragmented Nuclei (%).
Be sure to follow the number with its unit.

compound: O=C(NCCNCC(O)COc1ccc(O)cc1)N1CCOCC1.O=C(NCCNCC(O)COc1ccc(O)cc1)N1CCOCC1.O=C(O)/C=C/C(=O)O (stereo not drawn) [XAMOTEROL FUMARATE]
measured_result: 20%

QUERY: Returns the measured Population Fragmented Nuclei (%) for the input compound. Input: O=C(O)CCC/C=C\CC1C(O)CC(O)C1/C=C/C(O)COc1cccc(Cl)c1 (stereo not drawn)
RESULT: 24%

----------
# System: HEK-293T
# experiment_notes: Multiplex assay against HEK293T
# Assay type: toxicity, cell-based
# test_conditions: human, 24 h, 10 µM, compound concentration 10 uM, replicate 1
compounds and their reported Population Hoechst High Intensity Objects (%)
Use % as the unit, but write only the number.

compound: O=C(Nc1cc(-c2ccccc2)nn1-c1ccccc1F)c1ccc([N+](=O)[O-])cc1
unit_of_measurement: %
measured_result: 2
//
compound: Cc1ccc(OCC(O)C(C)NC(C)C)c2c1CCC2.Cl (stereo not given)
unit_of_measurement: %
measured_result: 5
//
compound: CCc1nn2c(C)cc(C)nc2c1Cc1ccc(-c2nnc(C3CCNCC3)o2)cc1
unit_of_measurement: %
measured_result: 5
//
compound: Nc1nc(-c2ccco2)c2cnn(Cc3ccccc3F)c2n1
unit_of_measurement: %
measured_result: 6
//
compound: COc1cc2nc(N3CCN(C(=O)c4ccco4)CC3)nc(N)c2cc1OC.Cl [PRAZOSIN HYDROCHLORIDE]
unit_of_measurement: %
measured_result: 5
//
compound: Cc1cc(-c2ccc3c(c2)CC[C@H]3N2CC3(CCN(C(=O)Cc4cn5cc(C)sc5n4)CC3)C2)ncn1
unit_of_measurement: %
measured_result: 5
//
compound: COc1cc(C(=O)N2CC[C@@H](O)[C@@H](N)C2)cc2nc(-c3cc4ccccc4n3CC3CC3)n(C)c12.Cl
unit_of_measurement: %
measured_result: 18
//
compound: O=c1nc2[nH]c3ccccc3nc-2c(=O)[nH]1
unit_of_measurement: %
measured_result: 6

QUERY: Population Hoechst High Intensity Objects (%) for COc1ccc2[nH]c(I)c(CCNC(C)=O)c2c1 ?
RESULT: 5

QUERY: // returns reported Population Hoechst High Intensity Objects (%) for input C[C@H](NC(=O)CNC(=O)c1cccc(Cl)c1)c1ccccc1
RESULT: 4

----------
A collection of compounds and their measured Population Tubulin-Different-Phenotype (%)
# Test system: HEK-293T
# experiment_notes: Multiplex assay against HEK293T
# Assay type: toxicity, cell-based
# test_conditions: human, 48 h, 10 µM, compound concentration 10 uM, replicate 1
Express it in %; write the number only.

compound: CCCCCCNC(=O)Nc1ccc(S(=O)(=O)Nc2ccc(CCNC[C@H](O)COc3ccc(O)cc3)cc2)cc1 [L-755507]
tgt: HEK-293T
measured_result: 32

compound: S=C(NCCCc1c[nH]cn1)NCCCN(Cc1ccc(Cl)c(Cl)c1)c1ccc(Br)cn1
tgt: HEK-293T
measured_result: 53

compound: Cc1cc(O)c(-c2ccc([C@@H](C)CN(C)C)cc2)c2c1[nH]c(=O)c1sccc12
tgt: HEK-293T
measured_result: 54

QUERY: Entry under review: COc1cc(OC2CCN(C(C)=O)CC2)ccc1C(=O)N1CCC(N2C(=O)OCc3ccccc32)CC1 . Reported Population Tubulin-Different-Phenotype (%)?
RESULT: 21

QUERY: I am curious: what Population Tubulin-Different-Phenotype (%) value has been reported for CN(C)C(=O)Cn1cc(-c2ccc(-c3nnc4ccccn34)cc2)cn1 ?
RESULT: 14

QUERY: For the compound shown here, Cl.Cl.OCCOCCN1CCN(C(c2ccccc2)c2ccc(Cl)cc2)CC1 (stereo not drawn) [HYDROXYZINE HYDROCHLORIDE] , give the reported Population Tubulin-Different-Phenotype (%).
RESULT: 35

QUERY: May I ask what Population Tubulin-Different-Phenotype (%) has been recorded for Cc1cc(-c2ccc3c(c2)CC[C@H]3N2CC3(CCN(C(=O)Cc4cn5cc(C)sc5n4)CC3)C2)ncn1 [PF-5190457] ?
RESULT: 20

QUERY: // returns reported Population Tubulin-Different-Phenotype (%) for input CN1CCN(c2ccc(Nc3c4ccccc4nc4ccccc34)cc2)CC1.Cl.Cl.O
RESULT: 88
